I'd appreciate it if you could supply viability values for the items below.
- Test system: primary AML patient cells (S011)
- Method notes: viability relative to DMSO control (fraction); higher = less drug effect (more viable cells)
- Recorded conditions: 0.024 µM; 48 h
No unit in the answer, please; the number alone is enough.

Endpoint output: viability of O=C(O)CSc1cc(NS(=O)(=O)c2ccc(Br)cc2)c2ccccc2c1O . Value?
0.457

Can you check N#CC[C@H](C1CCCC1)n1cc(-c2ncnc3[nH]ccc23)cn1 next?
1.26

Can you check O=C(c1cc(Cc2n[nH]c(=O)c3ccccc23)ccc1F)N1CCN(C(=O)C2CC2)CC1 next?
0.832

Can you check CNC(=O)c1cc(Oc2ccc(NC(=O)Nc3ccc(Cl)c(C(F)(F)F)c3)cc2)ccn1 next?
0.966

---

I'd appreciate it if you could supply viability values for the items below.
- System: primary MCL patient cells (S063)
- Method notes: viability relative to DMSO control (fraction); higher = less drug effect (more viable cells)
- Recorded conditions: 15 µM; 48 h
No unit in the answer, please; the number alone is enough.

Endpoint output: viability of Nc1ncn([C@H]2C[C@H](O)[C@@H](CO)O2)c(=O)n1 [Decitabine (Dacogen)] . Value?
0.977

Can you check Nc1nc(=S)c2[nH]cnc2[nH]1 [Thioguanin] next?
0.064

Can you check C[C@@H](Oc1cc(-c2cnn(C3CCNCC3)c2)cnc1N)c1c(Cl)ccc(F)c1Cl [Crizotinib] next?
0.254

Can you check CCN1CCN(Cc2ccc(Nc3ncc(F)c(-c4cc(F)c5nc(C)n(C(C)C)c5c4)n3)nc2)CC1 next?
0.00904

Can you check O=C(O)CSc1cc(NS(=O)(=O)c2ccc(Br)cc2)c2ccccc2c1O [UMI-77] next?
0.701

Can you check CNC(=O)c1cc(Oc2ccc(NC(=O)Nc3ccc(Cl)c(C(F)(F)F)c3)cc2)ccn1 [Sorafenib] next?
1.02

Can you check Cc1cc(Nc2ncc(Cl)c(Nc3ccccc3S(=O)(=O)C(C)C)n2)c(OC(C)C)cc1C1CCNCC1 [Ceritinib] next?
0.0187

---

- Test system: primary FL patient cells (S022)
- Method notes: viability relative to DMSO control (fraction); higher = less drug effect (more viable cells)
- Recorded conditions: 15 µM; 48 h
Reported metric: viability
No unit in the answer, please; the number alone is enough.

Endpoint output: viability of CCc1nc(C(N)=O)c(Nc2ccc(N3CCC(N4CCN(C)CC4)CC3)c(OC)c2)nc1NC1CCOCC1 . Value?
0.358

Can you check Nc1ncn([C@H]2C[C@H](O)[C@@H](CO)O2)c(=O)n1 next?
0.962

Can you check Nc1nc(=S)c2[nH]cnc2[nH]1 next?
0.483

Can you check Oc1ccc(/C=C/c2cc(O)cc(O)c2)cc1 next?
0.811

---

- Test system: primary AML patient cells (S012)
- Method notes: viability relative to DMSO control (fraction); higher = less drug effect (more viable cells)
- Recorded conditions: 0.024 µM; 48 h
Reported metric: viability
No unit in the answer, please; the number alone is enough.

Endpoint output: viability of CS(=O)(=O)c1ccc(C(=O)Nc2ccc(Cl)c(-c3ccccn3)c2)c(Cl)c1 [Vismodegib] . Value?
0.993

Can you check O=C(Nc1cccc(C(F)(F)F)c1)Nc1cc(S(=O)(=O)NC2CC2)ccc1-c1ccsc1 [AGI-6780] next?
1.03

Can you check C[C@@H](Oc1cc(-c2cnn(C3CCNCC3)c2)cnc1N)c1c(Cl)ccc(F)c1Cl [Crizotinib] next?
1

Can you check O=C(O)CSc1cc(NS(=O)(=O)c2ccc(Br)cc2)c2ccccc2c1O [UMI-77] next?
1.07
